Test system: HT-29
Assay: Growth inhibition of human HT-29 cells at 10 uM measured after 48 hrs by SRB assay relative to control
Type: functional
Settings: read-out: GI
Examples of compounds with documented inhibition of growth at 10 µM follow.

Previously resolved entries follow.
{"smiles_entry": "COc1cccc2nc(Nc3cccc(NC(=O)c4ccc(N5CCOCC5)c(C(F)(F)F)c4)c3)ccc12", "inhibition of growth at 10 µM": "87.2%"}
{"smiles_entry": "COc1cccc2nc(Nc3cccc(NC(=O)c4cc(C(F)(F)F)cc(C(F)(F)F)c4)c3)ccc12", "inhibition of growth at 10 µM": "< 20%"}

Next compound, inhibition of growth at 10 µM to be filled in.
# input Item under review: COc1cccc2nc(Nc3cccc(NC(=O)c4ccc(Cl)c(C(F)(F)F)c4)c3)ccc12 . Reported inhibition of growth at 10 µM?
# output < 20%

---

System: RPMI-8226
Experiment: Growth inhibition of human RPMI-8226 cells measured after 48 hrs by SRB assay
Format: functional
Examples of compounds with documented GI50 follow.
API: value field is a number in nM; no unit string.

Previously resolved entries follow.
{"smiles_entry": "COc1cc2cc(Oc3ccc(NC(=O)c4cc(C(F)(F)F)cc(C(F)(F)F)c4)cc3)c(C)nc2cc1OC", "study_target": "RPMI-8226", "unit": "nM", "GI50": 1570}
{"smiles_entry": "CCN1CCN(c2cc(C(=O)Nc3cccc(Nc4ccc5c(OC)cccc5n4)c3)cc(C(F)(F)F)c2)CC1", "study_target": "RPMI-8226", "unit": "nM", "GI50": 1200}
{"smiles_entry": "COc1cccc2nc(Nc3cccc(NC(=O)c4ccc(N5CCN(C)CC5)c(C(F)(F)F)c4)c3)ccc12", "study_target": "RPMI-8226", "unit": "nM", "GI50": 1650}

# input Enter reported GI50 observed with RPMI-8226 for Cc1ccc(NC(=O)c2ccc(CN3CCN(C)CC3)cc2)cc1Nc1nccc(-c2cccnc2)n1
# output 6050

---

System: K562
Assay: Growth inhibition of human K562 cells at 10 uM measured after 48 hrs by SRB assay relative to control
Format: functional
Details: read-out: GI
Examples of molecules with documented inhibition of growth at 10 µM follow.
API: value field is a number in %; no unit string.

Previously resolved entries follow.
{"smiles_entry": "COc1cccc2nc(Nc3ccc(NC(=O)c4ccc(Cl)c(C(F)(F)F)c4)cc3)ccc12", "recorded_endpoint": "inhibition of growth at 10 µM", "observed": 47.5}
{"smiles_entry": "COc1cccc2nc(Nc3cccc(NC(=O)c4ccc(Cl)c(C(F)(F)F)c4)c3)ccc12", "recorded_endpoint": "inhibition of growth at 10 µM", "observed": 56.8}
{"smiles_entry": "COc1cccc2nc(Nc3cccc(NC(=O)c4ccc5ncccc5c4)c3)ccc12", "recorded_endpoint": "inhibition of growth at 10 µM", "observed": 61.1}
{"smiles_entry": "COc1cccc2nc(Nc3cccc(NC(=O)c4ccc5c(c4)OCCO5)c3)ccc12", "recorded_endpoint": "inhibition of growth at 10 µM", "observed": 67.8}

# input Item under review: COc1cccc2nc(Nc3cccc(NC(=O)c4cc(C(F)(F)F)cc(C(F)(F)F)c4)c3)ccc12 . Reported inhibition of growth at 10 µM?
# output 77.3

---

Tested on: HT-29
Test: Growth inhibition of human HT-29 cells at 10 uM measured after 48 hrs by SRB assay relative to control
Type: functional
Conditions: read-out: GI
recorded_endpoint: inhibition of growth at 10 µM (%)
API: value field is a number in %; no unit string.

{"smiles_entry": "COc1cccc2nc(Nc3cccc(NC(=O)c4ccc5ncccc5c4)c3)ccc12", "inhibition of growth at 10 µM, %": 42.4}

# input Item under review: COc1cccc2nc(Nc3ccc(NC(=O)c4ccc(Cl)c(C(F)(F)F)c4)cc3)ccc12 . Reported inhibition of growth at 10 µM?
# output 21.8

---

System: PC-3
Test: Growth inhibition of human PC-3 cells at 10 uM measured after 48 hrs by SRB assay relative to control
Format: functional
Conditions: read-out: GI
recorded_endpoint: inhibition of growth at 10 µM (%)
API: value field is a number in %; no unit string.

Previously resolved entries follow.
{"smiles_entry": "COc1cccc2nc(Nc3cccc(NC(=O)c4cc(C(F)(F)F)cc(C(F)(F)F)c4)c3)ccc12", "observed": 62.7}
{"smiles_entry": "COc1cccc2nc(Nc3cccc(NC(=O)c4ccc5c(c4)OCCO5)c3)ccc12", "observed": 32.1}
{"smiles_entry": "COc1cccc2nc(Nc3cccc(NC(=O)c4ccc(Cl)c(C(F)(F)F)c4)c3)ccc12", "observed": 50.3}
{"smiles_entry": "COc1cccc2nc(Nc3cccc(NC(=O)c4cccc(Cl)n4)c3)ccc12", "observed": 20.6}

Next molecule, inhibition of growth at 10 µM to be filled in.
# input Enter reported inhibition of growth at 10 µM observed with PC-3 for COc1cccc2nc(Nc3cccc(NC(=O)c4ccc5ncccc5c4)c3)ccc12
# output 56.2

---

Test system: HT-29
Assay: Growth inhibition of human HT-29 cells at 10 uM measured after 48 hrs by SRB assay relative to control
Assay type: functional
Settings: read-out: GI
recorded_endpoint: inhibition of growth at 10 µM

{"smiles_entry": "COc1cccc2nc(Nc3ccc(NC(=O)c4ccc5c(c4)OCCO5)cc3)ccc12", "study_target": "HT-29", "inhibition of growth at 10 µM": "< 20%"}

# input Item under review: COc1cccc2nc(Nc3cccc(NC(=O)c4ccc5c(c4)OCCO5)c3)ccc12 . Reported inhibition of growth at 10 µM?
# output < 20%

# input Item under review: COc1cccc2nc(Nc3cccc(NC(=O)c4cccc(Cl)n4)c3)ccc12 . Reported inhibition of growth at 10 µM?
# output < 20%
